Tested on: Salmonella
Format: cell-based, S. typhimurium
Conditions: pH 7.2
Ends that are not written are not given here.
Overview of recorded pIC50 for various sequences
Note: pIC50 values are expressed as the negative base-10 logarithm of concentration in M.

Worked examples, 3 sequences total:
[[record]]
item_sequence = "GRSLWRDVSRNFMRR [Peptide G14.13, GRSLWRDVSRNFMRR]"
number = 5.12

[[record]]
item_sequence = "RRVSRRPMRRYRSRRPRRLV [Peptide G12.12]"
number = 6.68

[[record]]
item_sequence = "RRVSRRFMRRYRSRVIRGLV [Peptide G12.7]"
number = 6.66


Moving on to another sequence below.
Query :: Entry RRVSRRFMRRGSRRVSRRFMRRGSRRVSRRFMRR [Peptide G11.10] : reported pIC50 = ?
Result :: 6.68

# credit: patent US7745390B2
